# Tested on: [Chlorella] fusca
# procedure-text: Herbicidal activity against Chlorella fusca at 10 mg/mL by agar diffusion test
# Type: functional
# assay-conditions: Scenedesmus fuscus; read-out: IZ
Quick reference: zone of inhibition at 10000 µg/mL of the listed items.
Please give a number only; it is taken to be in mm.

Prompt line: Determine from records and report zone of inhibition at 10000 µg/mL for C[C@@]12CCC[C@]3(C)C4=CC(=O)O[C@@H](O)[C@]45O[C@@H]5[C@@H](OC1=O)[C@@H]23 [OIDIOLACTONE D]
Response line: 1

Prompt line: Determine from records and report zone of inhibition at 10000 µg/mL for CO[C@H]1OC(=O)C=C2C1=C[C@H]1OC(=O)[C@@]3(C)CCC[C@@]2(C)[C@@H]13
Response line: 20

Prompt line: Determine from records and report zone of inhibition at 10000 µg/mL for CO[C@H]1OC(=O)C=C2[C@@]13O[C@@H]3[C@H]1OC(=O)[C@@]3(C)CCC[C@@]2(C)[C@@H]13
Response line: 10

Prompt line: Determine from records and report zone of inhibition at 10000 µg/mL for C[C@]12CCC[C@](C)(C(=O)O)[C@@H]1C=C[C@]1(O)COC(=O)C[C@H]21 [OIDIOLACTONE E]
Response line: 1
